System: Target C mRNA
Procedure Details: RT-qPCR splicing assay panel, Target C canonical junction (CJ) mRNA
Format: cell-based, human
Condition Notes: Homo sapiens, canonical junction (CJ) mRNA, RT-qPCR panel, Table 4A; read-out: Target C, decrease in CJ mRNA levels, IC50
pIC50: −log10 of the molar value.
Result Type: pIC50

**Q:** May I ask what pIC50 has been recorded for Cc1cc(-c2ccc(-c3ccc(N4CC[C@@H](NC5CCC5)C4)nn3)c(O)c2)cnn1 ?
**A:** < 5.00

**Q:** May I ask what pIC50 has been recorded for Oc1cc(-c2cnn3c2CCC3)ccc1-c1ccc(N2CCC(NC3CCC3)C2)nn1 (stereo not shown) ?
**A:** 6.00 to 7.00

**Q:** May I ask what pIC50 has been recorded for COc1cc(-c2ccc(-c3cc(C)c(N4CC[C@H](NC5CCC5)C4)nn3)c(O)c2)cnn1 ?
**A:** 5.00 to 6.00

**Q:** May I ask what pIC50 has been recorded for COc1cc(-c2ccc(-c3ccc(N4CC(F)[C@@H](NC(C)(C)C)C4)nn3)c(O)c2)cnn1 (stereo in doubt) ?
**A:** 6.00 to 7.00

###

Tested on: SMN2 mRNA
Procedure Details: RT-qPCR splicing assay panel, SMN2 canonical junction (CJ) mRNA
Assay type: cell-based, human
Condition Notes: Homo sapiens, canonical junction (CJ) mRNA, RT-qPCR panel, Table 4A; read-out: SMN2, decrease in CJ mRNA levels, IC50
pIC50: −log10 of the molar value.
What pIC50 was measured for each of the following?

**Q:** Record Oc1cc(-c2cc(OC(F)F)ncn2)ccc1-c1ccc(N2CCC(NCC3CC3)C2)nn1 (stereo not shown) [Compound 370] : what is its pIC50 with SMN2 mRNA?
**A:** 6.00 to 7.00

**Q:** Record Cc1ncc(-c2cc(O)c(-c3ccc(N4CC[C@H](NC5CCC5)C4)nn3)cc2F)o1 [Compound 229] : what is its pIC50 with SMN2 mRNA?
**A:** > 7.00

**Q:** Record Cc1ncc(-c2cc(O)c(-c3ccc(N4CC[C@@H](NC(C)(C)C)C4)nn3)cc2F)s1 [Compound 338] : what is its pIC50 with SMN2 mRNA?
**A:** > 7.00

**Q:** Record Oc1cc(-c2cn[nH]c2)ccc1-c1ccc(N2CC[C@@H](NC3CCC3)C2)nn1 [Compound 114] : what is its pIC50 with SMN2 mRNA?
**A:** > 7.00

###

System: HTT mRNA
Procedure Details: RT-qPCR splicing assay, HTT canonical (CJ) and alternative (AJ) junction mRNA
Format: cell-based, human
Condition Notes: Homo sapiens, 24 h, Table 3B; A673 or K562 cells, 24 h treatment; read-out: HTT AJ (AC50, increase in AJ mRNA)
Result Type: AC50

**Q:** May I ask what AC50 has been recorded for Cc1nc2cc(O)c(-c3ccc(N4CC[C@@H](NC(C)(C)C(C)C)C4)nn3)cc2o1 ?
**A:** < 100 nM

**Q:** May I ask what AC50 has been recorded for Cc1nc2cc(O)c(-c3cnc(N4CC[C@@H](NC(C)(C)C)C4)nn3)cc2o1 ?
**A:** > 10000 nM

**Q:** May I ask what AC50 has been recorded for Cc1nc2cc(O)c(-c3cnc(N4CC[C@@H](N(C)C(C)(C)C)C4)nn3)cc2o1 ?
**A:** 1000 to 10000 nM

**Q:** May I ask what AC50 has been recorded for CC(C)(C)NC1CCN(c2ccc(-c3cc4oc(CC#N)nc4cc3O)nn2)C1 (stereo not drawn) ?
**A:** 100 to 1000 nM

**Q:** May I ask what AC50 has been recorded for Cc1nc2cc(O)c(-c3ccc(N4CCC(NC(C)(C)C(C)(C)C)C4)nn3)cc2o1 (stereo not drawn) ?
**A:** 100 to 1000 nM

**Q:** May I ask what AC50 has been recorded for Cc1nc2cc(O)c(-c3ccc(N4CC[C@@H](NC(C)(C)C)C4)nn3)cc2o1 ?
**A:** < 100 nM

**Q:** May I ask what AC50 has been recorded for Cn1c(=O)oc2cc(-c3ccc(N4CCC(NC(C)(C)C)C4)nn3)c(O)cc21 (stereo not drawn) ?
**A:** 100 to 1000 nM

**Q:** May I ask what AC50 has been recorded for Cc1nc2cc(O)c(-c3cnc(N4C[C@@H](C)N[C@@H](C5CC5)C4)nn3)cc2o1 ?
**A:** 1000 to 10000 nM

**Q:** May I ask what AC50 has been recorded for Cc1nc2cc(O)c(-c3ccc(N4CCC(NC(C)(C)C(C)C)C4)nn3)cc2o1 (stereo not drawn) ?
**A:** 100 to 1000 nM

###

What pIC50 was measured for each of the following?
Test system: HTT mRNA
Procedure Details: RT-qPCR splicing assay, HTT canonical (CJ) and alternative (AJ) junction mRNA
Type: cell-based, human
Condition Notes: Homo sapiens, 24 h, Table 3A; A673 or K562 cells, 24 h treatment; read-out: HTT CJ (IC50, decrease in CJ mRNA)
pIC50: −log10 of the molar value.

**Q:** May I ask what pIC50 has been recorded for Oc1cc(-c2ccc(-c3ccc(N4CC[C@H](NC5CCC5)C4)nn3)c(O)c2)cnn1 ?
**A:** 6.00 to 7.00

**Q:** May I ask what pIC50 has been recorded for COc1cc(-c2cc(O)c(-c3ccc(N4CC[C@H](NC(C)(C)C)C4)nn3)cc2F)cnn1 ?
**A:** 6.00 to 7.00

**Q:** May I ask what pIC50 has been recorded for Cc1cc(-c2ccc(-c3ccc(N4CCC(NC5CCC5)C4)nn3)c(O)c2)cc2cn(C)nc12 (stereo not drawn) ?
**A:** 6.00 to 7.00

**Q:** May I ask what pIC50 has been recorded for COc1cc(-c2ccc(-c3ccc(N4C[C@@H](F)[C@@H](NC(C)(C)C)C4)nn3)c(O)c2)cnn1 ?
**A:** > 7.00

**Q:** May I ask what pIC50 has been recorded for COc1cc(-c2cc(O)c(-c3ccc(N4CC[C@@H](N(C)C(C)(C)C)C4)nn3)cc2F)cnn1 ?
**A:** > 7.00

**Q:** May I ask what pIC50 has been recorded for COc1cc(-c2ccc(-c3ccc(N4CC[C@H](NCC5CC5)C4)nn3)c(O)c2)ncn1 ?
**A:** > 7.00

**Q:** May I ask what pIC50 has been recorded for Oc1cc(-n2cnnc2)ccc1-c1ccc(N2CCC(NC3CCC3)C2)nn1 (stereo not drawn) ?
**A:** 5.00 to 6.00

**Q:** May I ask what pIC50 has been recorded for COc1cncc(-c2cc(O)c(-c3ccc(N4CC[C@H](NC5CCC5)C4)nn3)cc2F)c1 ?
**A:** 5.00 to 6.00

**Q:** May I ask what pIC50 has been recorded for CN([C@@H]1CCN(c2ccc(-c3ccc(-c4cn[nH]c4)cc3O)nn2)C1)C(C)(C)C ?
**A:** 6.00 to 7.00

**Q:** May I ask what pIC50 has been recorded for COc1nc(-c2cnc(N3CCC(NC(C)(C)C)C3)nn2)ccc1-c1cnc(C)s1 (stereo not drawn) ?
**A:** > 7.00

**Q:** May I ask what pIC50 has been recorded for COc1cc(-c2ccc(-c3ccc(N4CCC(CNC5CCC5)C4)nn3)c(O)c2)cnn1 (stereo not drawn) [Compound 348] ?
**A:** > 7.00

**Q:** May I ask what pIC50 has been recorded for Oc1cc(-c2cn[nH]c2)ccc1-c1ccc(N2CC[C@H](NC3CCC3)C2)nn1 ?
**A:** > 7.00

###

Test system: Target C mRNA
Procedure Details: RT-qPCR splicing assay panel, Target C canonical junction (CJ) mRNA
Type: cell-based, human
Condition Notes: Homo sapiens, canonical junction (CJ) mRNA, RT-qPCR panel, Table 4A; read-out: Target C, decrease in CJ mRNA levels, IC50
pIC50: −log10 of the molar value.
Result Type: pIC50

**Q:** May I ask what pIC50 has been recorded for CC1(NC2CCN(c3ccc(-c4ccc(-c5cn[nH]c5)cc4O)nn3)C2)CC1 (stereo not shown) ?
**A:** > 7.00

**Q:** May I ask what pIC50 has been recorded for COc1cc(-c2ccc(-c3ccc(N4CC[C@H](NCC5CC5)C4)nn3)c(O)c2)ncn1 ?
**A:** 6.00 to 7.00

**Q:** May I ask what pIC50 has been recorded for CCc1ncc(-c2cc(O)c(-c3ccc(N4CCC(NC5CCC5)C4)nn3)cc2F)s1 (stereo not shown) ?
**A:** < 5.00

**Q:** May I ask what pIC50 has been recorded for Cn1cc2nc(-c3ccc(-c4ccc(N5CCC(NC6CCC6)C5)nn4)c(O)c3)ccc2n1 (stereo not shown) ?
**A:** 5.00 to 6.00

**Q:** May I ask what pIC50 has been recorded for COc1cc(-c2cc(O)c(-c3ccc(N4CC[C@@H](NC(C)(C)C)C4)nn3)cc2F)ncn1 ?
**A:** 5.00 to 6.00

**Q:** May I ask what pIC50 has been recorded for CN(C1CCC1)[C@@H]1CCN(c2ccc(-c3cc(F)c(-c4cn[nH]c4)cc3O)nn2)C1 ?
**A:** 6.00 to 7.00

**Q:** May I ask what pIC50 has been recorded for CC(C)(C)N[C@H]1CCN(c2ccc(-c3ccc(-c4cn[nH]c4)cc3O)nn2)C1 [Compound 261] ?
**A:** > 7.00

**Q:** May I ask what pIC50 has been recorded for O=c1cc(-c2cc(O)c(-c3ccc(N4CC[C@H](NC5CCC5)C4)nn3)cc2F)cc[nH]1 ?
**A:** 5.00 to 6.00

**Q:** May I ask what pIC50 has been recorded for Cc1ncc(-c2cc(O)c(-c3ccc(N4CC[C@H](N(C)C(C)(C)C)C4)nn3)cc2F)s1 ?
**A:** > 7.00

**Q:** May I ask what pIC50 has been recorded for COc1cc(-c2ccc(-c3cc(C#N)c(OC4CC(C)(C)NC(C)(C)C4)nn3)c(O)c2)ncn1 ?
**A:** 5.00 to 6.00

**Q:** May I ask what pIC50 has been recorded for Cc1nnc(-c2cc(O)c(-c3ccc(N4CC[C@H](NC5CCC5)C4)nn3)cc2F)s1 ?
**A:** 5.00 to 6.00

**Q:** May I ask what pIC50 has been recorded for COc1cc(-c2ccc(-c3ccc(N4CCC(CNC5CCC5)C4)nn3)c(O)c2)cnn1 (stereo not shown) [Compound 348] ?
**A:** 6.00 to 7.00

**Q:** May I ask what pIC50 has been recorded for Cc1ncc(-c2cc(O)c(-c3ccc(OC4CC(C)(C)NC(C)(C)C4)nn3)cc2F)s1 ?
**A:** 6.00 to 7.00

**Q:** May I ask what pIC50 has been recorded for Cc1nc(C)c(-c2cc(O)c(-c3ccc(N4CC[C@@H](NC5CCC5)C4)nn3)cc2F)s1 ?
**A:** 5.00 to 6.00

**Q:** May I ask what pIC50 has been recorded for COc1cc(-c2cc(O)c(-c3ccc(N4CC[C@H](NC5CCC5)C4)nn3)cc2F)cnn1 ?
**A:** 6.00 to 7.00

**Q:** May I ask what pIC50 has been recorded for COc1cc(-c2ccc(-c3ccc(N4CCC(C)(NC5CCC5)C4)nn3)c(O)c2)cnn1 (stereo not shown) ?
**A:** > 7.00

**Q:** May I ask what pIC50 has been recorded for CC(C)(C)N[C@@H]1CCN(c2ccc(-c3ccc(-c4cn[nH]c4)cc3O)nn2)C1 ?
**A:** > 7.00

**Q:** May I ask what pIC50 has been recorded for Cc1ncc(-c2cc(O)c(-c3ccc(N4CC[C@@H](NC(C)(C)C)C4)nn3)cc2F)s1 ?
**A:** > 7.00

**Q:** May I ask what pIC50 has been recorded for Cc1ncc(-c2cc(O)c(-c3ccc(N4CC[C@H](NCC5CC5)C4)nn3)cc2F)s1 ?
**A:** > 7.00
